System: COLO 205 colon
Test: NCI-60 one-dose screen, 48 h (100 = growth as untreated, 0 = no growth, -100 = all killed)
Settings: 10 µM unless noted
About 83,000 compounds went through this panel and 20% of them were active in at least one assay; those are over-represented in the sample as a whole.
readout label: growth (%)
The response must be a number in % with no trailing unit.

Which measured growth value corresponds to CC(C)=CC(=O)N[C@H]1CC[C@]2(C)C3CC[C@]4(C)C(C(C)N(C)C)=CCC4C3CCC2[C@H]1O (stereo not given in full) ?
-14.9

Request: Cc1ccc(C(=O)c2ccc(CC(=O)N/N=C/c3cccc(O)c3O)n2C)cc1
63

Request: CN(C)CCC(=O)C1CC1
112

Request: COc1ccc(C(=O)Nc2ncc(Cc3ccc(Cl)cc3)s2)cc1
-2.86

Request: CCOC(=O)C/C(=N\Nc1cc(=O)[nH]c2ccc(OC)cc12)C(=O)OCC
114

Request: CC1(/C=C/c2ccc(-c3ccccc3)cc2)CCn2cnc3ncnc(c32)N1O (stereo not given)
28

Request: COc1ccc2c(c1)CC[C@@H]1[C@@H]2CC[C@]2(C)c3c(cc(C#N)c4c3sc3ccccc34)C[C@@H]12
110

Request: COc1cc(Cc2cc(OC)c(O)c(OC)c2)cc(OC)c1O
109

Request: COc1ccc(Nc2ncc(C#N)c(NCCCNC(=O)C3CCC3)n2)cc1
33.3

Request: CNC(=O)NCC1OC(n2cnc3c(NC(=O)Nc4ccccc4)ncnc32)C2OC(=O)CC12 (stereo not given)
110

Request: O=C(Cc1ccc(/C=C/C(=O)c2ncc[nH]2)cc1)Nc1cc(F)c(F)c(F)c1
64.9

Request: CSc1ccc(N2C(=N)C(=S)N(c3ccc(C)cc3)C2=O)cc1
98

Request: O=C(/C=C/C12c3ccccc3C(c3ccccc31)C1C(=O)NC(=O)C12)c1ccco1 (stereo not given)
45.8

Request: Cc1cc(N2CCN(CC(=O)Nc3ccc4c(ccn4Cc4ccccc4)c3)CC2)nc(N2CCOCC2)n1
98.2

Request: CC1(C)CC[C@]2(CO)CC[C@]3(C)[C@](O)([C@H](O)C[C@@H]4[C@@]5(C)CCCNC(C)(C)[C@@H]5CC[C@]43C)[C@@H]2C1
44.2

Request: COc1cc(/C=C/c2cn[nH]c2-c2ccc(C)cc2)cc(OC)c1OC
12.6

Request: N#CC1=C(N)Oc2c(sc3c(F)cccc23)C1c1ccc([N+](=O)[O-])cc1 (stereo not given)
-41.7

Request: CN1C(=O)N2CN3CCCN(C3)CN3C(=S)NC1C23 (stereo not given)
117

Request: Cc1ccc(OCCOCCOCCOCCOCCOc2ccc(C)n(O)c2=S)c(=S)n1O
10.4

Request: Cc1c(C(C)(C)O)cn2ncnc(Oc3ccc(NC(=O)Nc4ccc(Cl)c(C(F)(F)F)c4)c(F)c3)c12
72.8

* * *

System: NCI/ADR-RES ovarian
Assay: NCI-60 one-dose screen, 48 h
Conditions: 10 µM unless noted
This is part of a sample that, as a whole, favours compounds with a hit. Of some 83,000 tested, about 20% had one in any assay. Calls of active or inactive are those of the source. Rule for the calls: active = growth percent below 10; inactive = the rest.
Use one of these outcomes when replying: active, inactive

What did the test return for c1cc(OCCN2CCCC2)ccc1CNc1ccc2nc(CCC3CCCCC3)[nH]c2c1 ?
inactive

Request: C[C@H]1[C@H](C)CC[C@]2(C(=O)NCCNCCN)CC[C@]3(C)C(=CC[C@@H]4[C@@]5(C)CCC(=O)C(C)(C)[C@@H]5CC[C@]43C)[C@H]12
inactive

Request: CCOc1ncc([N+](=O)[O-])c(OCC)n1
inactive

Request: COc1cc(/C=C/c2cn[nH]c2-c2ccc(C)cc2)cc(OC)c1OC
inactive

Request: O=C(/C=C/C12c3ccccc3C(c3ccccc31)C1C(=O)NC(=O)C12)c1ccc(Cl)cc1Cl (stereo not given)
active

Request: Cc1cc(=O)oc2cc(Oc3nc(Br)cn4c(Br)cnc34)ccc12
inactive

Request: COc1cc2c(c(OC)c1OC)C(=O)CC(c1cccc(C(=O)Nc3ccc(C#N)cc3)c1)O2 (stereo not given)
inactive

Request: CN(C)CCC(CCN(C)C)(C(=O)O)c1ccccc1
inactive

Request: COc1cc(-c2ccc(-c3ccc(C(=N)N)cc3)s2)cc(OC)c1OC
inactive

Request: c1ccc(-c2ccc3c(c2)C2(CCNCC2)CN3)cc1
inactive

* * *

System: K-562 leukemia
Assay: NCI-60 one-dose screen, 48 h
Settings: 10 µM unless noted
This is part of a sample that, as a whole, favours compounds with a hit. Of some 83,000 tested, about 20% had one in any assay. Active and inactive are the calls of the source. How the source made its calls: active means growth percent below 10; inactive means the rest.
Use one of these outcomes when replying: 1 (active), 0 (inactive)

What did the test return for O=C(NN1C(=O)CSC1c1cccc([N+](=O)[O-])c1)c1ccc(NC(=O)c2ccccn2)cc1 (stereo not given) ?
0

Request: O=C(O)c1cn(C2CC2)c2cc(N3CCN(C(=O)N/N=C/c4cccc5ccccc45)CC3)c(F)cc2c1=O
0

Request: COc1ccc(-c2nc(SCC(=O)Nc3nc4ccc(C)cc4s3)[nH]c(=O)c2C#N)cc1OC
0

Request: CCOC(=O)C#Cc1c(C(=O)OCC)nnn1[C@@H]1O[C@H](COC)[C@@H](OC)[C@H]1OC
1

Request: Clc1ccc(Nc2ncc(Cc3cccc(Cl)c3Cl)s2)cc1
0

* * *

System: HCC-2998 colon
Assay: NCI-60 one-dose screen, 48 h
Conditions: 10 µM unless noted
Protocol: Growth inhibition of the HCC-2998 human tumor cell line is measured as a screen for anti-cancer activity. Cells are grown in 96 well plates and exposed to the test compound for 48 hours. Compounds are tested at a single concentration, which is 10^-5 M for most compounds. The reported endpoint is percent growth (GI% or GIPRCNT), where numbers from 0 - 100% represent growth inhibition, and numbers from -100% - 0 represent cell death. For example, a value of 40 represents 60% growth inhibition. […]
About 83,000 compounds went through this panel and 20% of them were active in at least one assay; those are over-represented in the sample as a whole. Activity calls are given as the source filed them. Rule for the calls: active = growth percent below 10; inactive = the rest.
Use one of these outcomes when replying: TRUE (active), FALSE (inactive)

What did the test return for Cc1c(O)cc(-c2cnc(N/N=C/c3ccccc3)s2)c(O)c1C ?
FALSE

Request: COCC(=O)Oc1cc(-c2ccc(C)cc2C)c(OC(=O)COC)c(-c2ccc(C)cc2C)c1
FALSE

Request: Cc1nc2sc(C(=O)Nc3ccccn3)c(N)c2cc1C(C)O (stereo unspecified)
FALSE

Request: C[N+]1=C(/C=C/c2ccccc2Cl)C(C)(C)c2ccccc21
FALSE

Request: CN(C)CCCNC(=O)c1cncnc1Nc1ccc2c(ccn2Cc2cccc(F)c2)c1
FALSE

Request: CC[C@@H](C(=O)[C@@H](C)[C@@H](O)[C@H](C)[C@@H]1O[C@@H]([C@@H](CC)C(=O)ONC(=O)c2ccccc2O)CC[C@@H]1C)C1O[C@]2(C=CC(=O)[C@]3(CC[C@@](C)([C@H]4CC[C@](O)(CC)[C@H](C)O4)O3)O2)[C@H](C)C[C@@H]1C (stereo partly specified)
FALSE

Request: O=c1oc2c(cnc3ccccc32)cc1-c1cccc(Cl)c1
FALSE

Request: Cn1c(=O)c2[nH]c(SC/C(=N/O)c3ccc(Br)cc3)nc2n(C)c1=O
FALSE

Request: C/C(=N\Nc1ccccc1)c1ccc(NC2=CC(=O)c3ccccc3C2=O)cc1
FALSE

Request: COC(=O)[C@]1(C)CCC[C@]2(C)[C@H]3C[C@@H]4[C@H]5[C@@H]6CC/C(=N\OCC/C(N)=N/O)[C@H]5[C@@]3(CC[C@H]21)CC4(C(C)C)O6
FALSE

Request: COc1cc(-c2cc(-c3ccc(Nc4nc(Nc5ccc(Cl)cc5)nc(Nc5ccc(Cl)cc5)n4)cc3)no2)cc(OC)c1OC
FALSE

Request: Nc1nc(C(=O)N/N=C/c2ccc(F)cc2)nn1-c1ccc(S(N)(=O)=O)cc1
FALSE

Request: CS(=O)(=O)Nc1cc(-c2ccc3ncnc(Nc4ccc(OCc5ccccn5)c(Cl)c4)c3c2)cnc1Cl
TRUE

Request: CN(C)CCn1c(=O)c2ccccc2n2nc3ccccc3c12
FALSE

Request: CC(C)NS(=O)(=O)/N=C1\NC(=O)NC1=C(Cl)Cl
FALSE

Request: COc1ccc(C(O)c2cc3c(N)c(C(=O)Nc4cccc5ccccc45)sc3nc2C)cc1 (stereo unspecified)
TRUE

Request: O=C(O)c1cn(C2CC2)c2cc(N3CCN(C(=O)N/N=C/c4cccc5ccccc45)CC3)c(F)cc2c1=O
FALSE

Request: CC(C)(C)OC(=O)CN1CCc2c(sc3ncnc(N4CCN(c5ccc(F)cc5)CC4)c23)C1
FALSE

Request: O=[N+]([O-])c1c(O)c(Cl)cc(Cl)c1Cl
FALSE

Request: Cc1ccc(-c2nc(SCC(=O)N3CCN(c4cc5c(cc4F)c(=O)c(C(=O)O)cn5C4CC4)CC3)nc(Cl)c2C#N)cc1
FALSE

Request: CC(C)c1ccc2c(c1)CC[C@H]1[C@](C)(C(=O)OCC#CCN3CCCC3)CCC[C@]21C
FALSE
